Biological target: Dual specificity tyrosine-phosphorylation-regulated kinase 1A (Homo sapiens, UniProt Q13627)
pIC50: −log10 of the molar value.
compounds and their reported pIC50

MOL_SMILES | pIC50
Cn1cc(-c2ccc3cnc(NC(=O)OC4(C)CC4)cc3c2)cn1 | > 8.00
Cc1ncc2ccc(-c3cncs3)cc2c1O[C@H]1C[C@@H](O)C1 | > 8.00
CN(C)[C@H]1CC[C@H](Oc2cc3cc(-c4cnc(C#CC5CCOCC5)s4)ccc3cn2)CC1 | < 6.00
O=C(O)[C@H]1C[C@H](Nc2c(-c3cncs3)ccc3cnccc23)C1 | < 6.00

Kindly note the recorded pIC50 for `CN1CCC(Oc2cncc3ccc(-c4cnc(C#CC5CCOCC5)s4)cc23)CC1` , which is > 8.00

Reference for the values: BindingDB's records for patent US20250066318
